B1: Neutrophil cytosol factor 2, residues 456 to 514; numbered along this chain, P19878 (parent)
chain: LKKGSQVEALFSYEATQPEDLEFQEGDIILVLSKVNEEWLEGECKGKVGIFPKVFVEDC

- Variants of: B1
- method: abundance fitness (aPCA) (normalised: wild type 0, dead -1); higher = more abundant; growth selection in yeast, the domain comes from the species named
- applied_conditions: Homo sapiens
experimental_readout: abundance fitness

Examples with their reported abundance fitness follow.
Look at this variant and give its reported abundance fitness. `G49K`
0.002

Look at this variant and give its reported abundance fitness. `D20L`
-0.071

Look at this variant and give its reported abundance fitness. `E38N`
-0.131

---
Look at this variant and give its reported abundance fitness. `V48F`
-0.505

Look at this variant and give its reported abundance fitness. `L40T`
-0.749

Look at this variant and give its reported abundance fitness. `I28D`
0.056
